Catalogue of AUC: 1-inhibition 0 hr values
system: guinea pig platelet aggregation; test: Persistent inhibitory action on guinea pig platelet aggregation ex vivo after single oral dose; type: in vivo; settings: AUC of maximum aggregation inhibition ratio (%) vs time (hr), from 1 hr after administration to inhibition 0 hr; oral IC50 dose
Readout: AUC: 1-inhibition 0 hr (%·h)

- Compound: "CCCC[C@H](C)C[C@H](O)/C=C/[C@H]1[C@H](O)CC(=O)[C@@H]1CCCC/C=C/C(=O)O [limaprost, reference compound]"
  Unit Text: "%·h"
  Observed: 353
- Compound: "CCC#CC[C@H](C)[C@H](O)/C=C/[C@H]1[C@H](O)CC(=O)[C@@H]1CCCC/C=C/C(=O)O"
  Unit Text: "%·h"
  Observed: 713
- Compound: "C[C@@H](CC#CC1CC1)[C@H](O)/C=C/[C@H]1[C@H](O)CC(=O)[C@@H]1CCCC/C=C/C(=O)O"
  Unit Text: "%·h"
  Observed: 719
- Compound: "C[C@@H](CC#CC1CC1)[C@H](O)/C=C/[C@H]1[C@H](O)CC(=O)[C@@H]1CCCCCCC(=O)O"
  Unit Text: "%·h"
  Observed: 627

* * *

Inhibition 0 hr values, listed per item
test system: guinea pig platelet aggregation; assay: Persistent inhibitory action on guinea pig platelet aggregation ex vivo after single oral dose; format: in vivo; conditions: assumed time at which maximum aggregation inhibition ratio became 0%; single oral dose at IC50 dose, guinea pig

- Compound: "CCC#CC[C@H](C)[C@H](O)/C=C/[C@H]1[C@H](O)CC(=O)[C@@H]1CCCC/C=C/C(=O)O [compound (1)-7]"
  Test System: "guinea pig platelet aggregation"
  Inhibition 0 hr: ">24 h"
- Compound: "C[C@@H](CC#CC1CC1)[C@H](O)/C=C/[C@H]1[C@H](O)CC(=O)[C@@H]1CCCCCCC(=O)O [compound (1)-9]"
  Test System: "guinea pig platelet aggregation"
  Inhibition 0 hr: "19.7 h"
- Compound: "CCCC[C@H](C)C[C@H](O)/C=C/[C@H]1[C@H](O)CC(=O)[C@@H]1CCCC/C=C/C(=O)O [limaprost, reference compound]"
  Test System: "guinea pig platelet aggregation"
  Inhibition 0 hr: "12.1 h"
- Compound: "C[C@@H](CC#CC1CC1)[C@H](O)/C=C/[C@H]1[C@H](O)CC(=O)[C@@H]1CCCC/C=C/C(=O)O [compound (1)-10]"
  Test System: "guinea pig platelet aggregation"
  Inhibition 0 hr: ">24 h"

* * *

system: rat cauda equine blood flow; assay: Increasing effect on rat cauda equine blood flow (intravenous infusion, laser Doppler); assay type: in vivo; conditions: Wistar rat, tail vein infusion 10 min; relative activity from ED20 (dose increasing cauda equine blood flow by 20%), limaprost = 100

- Compound: "CCCC[C@H](C)C[C@H](O)/C=C/[C@H]1[C@H](O)CC(=O)[C@@H]1CCCC/C=C/C(=O)O [limaprost, reference compound]"
  Test System: "rat cauda equine blood flow"
  Relative activity (%): 100
- Compound: "CCC#CC[C@H](C)[C@H](O)/C=C/[C@H]1[C@H](O)CC(=O)[C@@H]1CCCCCCC(=O)O"
  Test System: "rat cauda equine blood flow"
  Relative activity (%): 383
- Compound: "CCC#CC[C@H](C)[C@H](O)/C=C/[C@H]1[C@H](O)CC(=O)[C@@H]1CCCC/C=C/C(=O)O"
  Test System: "rat cauda equine blood flow"
  Relative activity (%): 375
- Compound: "C[C@@H](CC#CC1CC1)[C@H](O)/C=C/[C@H]1[C@H](O)CC(=O)[C@@H]1CCCCCCC(=O)O"
  Test System: "rat cauda equine blood flow"
  Relative activity (%): 311
- Compound: "C[C@@H](CC#CC1CC1)[C@H](O)/C=C/[C@H]1[C@H](O)CC(=O)[C@@H]1CCCC/C=C/C(=O)O"
  Test System: "rat cauda equine blood flow"
  Relative activity (%): 550
- Compound: "CCC#CC[C@H](C)[C@H](O)/C=C/[C@H]1[C@H](O)CC(=O)[C@@H]1CCCCCCC(=O)OCc1oc(=O)oc1C"
  Test System: "rat cauda equine blood flow"
  Relative activity (%): 147
